Tested on: HEK-293T
Assay: Multiplex assay against HEK293T;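 also: share of the cells with healthy nuclei that show this phenotype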
Assay type: toxicity, cell-based
Settings: human, 48 h, 10 µM, compound concentration 10 uM, replicate 2
Attribute: Population Tubulin-Different-Phenotype (%)
Quick reminder: number only, in %, skip the unit.

# example entries with known answers
Report Population Tubulin-Different-Phenotype (%) for Oc1cccc(-c2nc(N3CCOCC3)c3oc4ncccc4c3n2)c1 please.
88

Query CN1CCN(Cc2ccc(-c3cnc4[nH]cc(-c5ccc6[nH]ccc6c5)c4c3)cc2)CC1 next
100

Query CN1C(=O)[C@@H](NC(=O)c2cc3ccccc3[nH]2)N=C(c2ccccc2)c2ccccc21 [DEVAZEPIDE] next
64

Query Cc1ccc(S(=O)(=O)NC2c3ccccc3Oc3ccccc32)cc1 next
45

Further cases:
Report Population Tubulin-Different-Phenotype (%) for CCCCCNC(=N)N/N=C/c1c[nH]c2ccc(OC)cc12.O=C(O)/C=C\C(=O)O [TEGASEROD MALEATE] please.
65
